Each recorded value in this set is attributed to paper PMC13397619.

Measured enrichment of individual entries
B1: NLV2 TCR alpha chain (CDR3α only) (parent)
chain: AGPMKTSYDKVI

Variants of: B1
MEASUREMENT_DESCRIPTION: T-Switch: Jurkat TCRβ−/− cells expressing a CDR3 saturation-mutagenesis library, stained with two peptide-HLA-A*02:01 tetramers (original and novel peptide) plus anti-CD3, FACS-sorted into four gates, gDNA sequenced
ASSAY_CONDITIONS: with both tetramers (double-negative gate, binds neither): HLA-A*02:01 with … and with …, tetramers 1 µg/mL, 30 min on ice, SP, DP and SW gates expanded about 10 days between rounds ('two to three rounds of selection' in the Methods), gate DN: OPPOSITE: higher = more of the variant in the gate that binds neither peptide = LESS binding (or no expression; inferred). Fold enrichment of the CDR3 variant in one FACS gate of a two-tetram, unresolved parent, parent is a CDR3 fragment, scale: fold enrichment, numbering: sequential-on-construct, sequence starts at 1
The reply should be a number, written without any unit.

Task: Which enrichment value is on record for […] (CDR3 as printed); V11P derived by comparing it with the table's wild-type CDR3 AGPMKTSYDKVI ?
Result: 0.923

Task: What does the data say about its enrichment? Entry: […] (CDR3 as printed); A1F derived by comparing it with the table's wild-type CDR3 AGPMKTSYDKVI
Result: 0.884

Task: # query: enrichment of entry […] (CDR3 as printed); I12L derived by comparing it with the table's wild-type CDR3 AGPMKTSYDKVI
Result: 0.907

Task: Find the recorded enrichment belonging to […] (CDR3 as printed); I12W derived by comparing it with the table's wild-type CDR3 AGPMKTSYDKVI and report it.
Result: 0.924

Task: Given the entry […] (CDR3 as printed); D9T derived by comparing it with the table's wild-type CDR3 AGPMKTSYDKVI , report its measured enrichment.
Result: 0.889
